System: Saccharomyces cerevisiae
Experiment: protein stability index of tFT-peptide fusion (C-terminal peptide) (PSI (0-1 scale)); higher = more stable (slower turnover)
Details: genetic background: das1 deletion; temperature: 30 C
Tick 1 if protein stability index is 0.7 or greater. Tick -1 if protein stability index is less than 0.7.

Answered cases to consult:
AYQITKRGIETA [RAD57 C-terminal 12 aa]: -1
VSNLEVLEELFP [DPI35 C-terminal 12 aa]: 1
IWLVYKLYCFIF [CST26 C-terminal 12 aa]: -1
SSNEDKKGMCKL [IDP3 C-terminal 12 aa]: 1
NSFDGLLVYLSN [CBF2 C-terminal 12 aa]: -1

Problem: Is it the case that GWDLRFEEDPSA [TRP5 C-terminal 12 aa] has protein stability index reaching or exceeding 0.7?
Solution: 1

Problem: Is it the case that KVIRGKGFKLPK [ERD2 C-terminal 12 aa] has protein stability index reaching or exceeding 0.7?
Solution: -1

Problem: Is it the case that EEFINKLVKAMN [RPL7B C-terminal 12 aa] has protein stability index reaching or exceeding 0.7?
Solution: -1

Problem: Is it the case that KGGLEGWVKSQL [LYS4 C-terminal 12 aa] has protein stability index reaching or exceeding 0.7?
Solution: 1

----------
Test system: Saccharomyces cerevisiae
Experiment: protein stability index of tFT-peptide fusion (C-terminal peptide) (PSI (0-1 scale)); higher = more stable (slower turnover)
Details: genetic background: wild type; temperature: 30 C
Field: protein stability index. Provide a value for each of the sequences that follow.
Numbers only.

THPPPGPHPSAA: 0.717
DTALMQAGSLFH: 0.651
DGHSMFNRLIRS: 0.642
YVQTKKTRYVLV: 0.454
VLSRPLSFPAGI: 0.61

List protein stability index for every entry below, keeping the order given.
1. VGGVDMCGARVV
2. SCLVWTWVSSVL

Solution:
0.754
0.573

List protein stability index for every entry below, keeping the order given.
1. PISPSLCSSILS
2. LCSPSPPCPRLP
3. FISPLNFPARPS
4. PPLPLTSPPPSP
5. CLLGMKSRTILV
6. TLPDSSSTSPNL
7. FCGFLFRLSSVL
8. PPPPLLPTPRPF

Solution:
[0.589, 0.748, 0.718, 0.631, 0.377, 0.696, 0.626, 0.682]

List protein stability index for every entry below, keeping the order given.
1. LLRWCFDLWWVL
2. KSEKTYTYQVIQ

Solution:
0.532
0.453

List protein stability index for every entry below, keeping the order given.
1. QREYHENKIKYI
2. WVREFSHKHVMS

Solution:
1: 0.563; 2: 0.718

----------
System: Saccharomyces cerevisiae
Test: protein stability index of tFT-peptide fusion (C-terminal peptide) (PSI (0-1 scale)); higher = more stable (slower turnover)
Settings: genetic background: wild type; temperature: 30 C
Field: protein stability index. Provide a value for each of the sequences that follow.

See these solved cases before continuing.
WGGGGGGGPAGV: 0.666
RLSPLTLPFCTS: 0.645
GASGGNRTGRRS: 0.681
FLSFRLCTAAPV: 0.559
RLSPPGFRLGLF: 0.517
SPPPPPPSYPAH: 0.772

List protein stability index for every entry below, keeping the order given.
1. PFPFLPSPIFPQ
2. TDISPRFVSVYL
3. GFARICVLLPSS
4. PCTFYLFWMFFV
5. HVTSTRGARRPS
6. RRRPSPKASILS

Solution:
1. 0.749
2. 0.656
3. 0.727
4. 0.304
5. 0.715
6. 0.719

----------
System: Saccharomyces cerevisiae
Assay: protein stability index of tFT-peptide fusion (C-terminal peptide) (PSI (0-1 scale)); higher = more stable (slower turnover)
Conditions: genetic background: wild type; temperature: 30 C
Measured attribute: protein stability index
One number for each entry.

See these solved cases before continuing.
FLSLSFLLLHFP: 0.434
APGGRGAAGPSC: 0.655
SSVCYFGLLFIV: 0.103

List protein stability index for every entry below, keeping the order given.
1. GTLVFTYLVLRC
2. ARCKRSLSGGIG
3. LVCLVFVRSSLV
4. WFWVAVGVVGGG
5. FPFFVFRVWFGA
6. LTCTSTPMACRV

Solution:
1: 0.167; 2: 0.524; 3: 0.232; 4: 0.358; 5: 0.346; 6: 0.475

----------
Test system: Saccharomyces cerevisiae
Experiment: protein stability index of tFT-peptide fusion (C-terminal peptide) (PSI (0-1 scale)); higher = more stable (slower turnover)
Conditions: genetic background: wild type; temperature: 30 C
Tick met if protein stability index is 0.7 or greater. Tick not met if protein stability index is less than 0.7.

Answered cases to consult:
PPPPPHRTPHPS: met
IFVLLSYYPLFV: not met
WAAVGIQLRLLF: not met
SLQGLLSIVNYR: met
EEKREERGDRGR: not met
PPHPLSLSLRPP: not met
GAGSGTRQPKPR: not met
KKLAPHPLTTRV: not met

Problem: Is it the case that RSSGHLLDGRAF has protein stability index reaching or exceeding 0.7?
Solution: not met

Problem: Is it the case that SWRRCLSSIPVA has protein stability index reaching or exceeding 0.7?
Solution: not met

Problem: Is it the case that KGDPKLTKKKPL has protein stability index reaching or exceeding 0.7?
Solution: not met

Problem: Is it the case that IGLSPICAAAYT has protein stability index reaching or exceeding 0.7?
Solution: not met

Problem: Is it the case that LFVLSLHLPCFG has protein stability index reaching or exceeding 0.7?
Solution: not met

Problem: Is it the case that VVSGLNYCLVLS has protein stability index reaching or exceeding 0.7?
Solution: not met

Problem: Is it the case that GSERGGRSRGRG has protein stability index reaching or exceeding 0.7?
Solution: not met

Problem: Is it the case that DGKAGRKGFWRK has protein stability index reaching or exceeding 0.7?
Solution: met

----------
Field: protein stability index. Provide a value for each of the sequences that follow.
System: Saccharomyces cerevisiae
Assay: protein stability index of tFT-peptide fusion (C-terminal peptide) (PSI (0-1 scale)); higher = more stable (slower turnover)
Details: genetic background: wild type; temperature: 30 C
Answers are plain numbers.

SQSPPTSPAPHD: 0.706
CFWSVIGVQFEV: 0.629
QKDLVGSKSEYE: 0.735
MPGSLPVSRVLL: 0.74
VFLRGWGRSEGG: 0.679
GPGCDDDASGSV: 0.686
VFLPPPPPPAPP: 0.639
RTLNILCGGALR: 0.691

List protein stability index for every entry below, keeping the order given.
1. APIQPRAPPRAP
2. LVEARQGAFLVV
3. VLAFSPCPPPPP
4. RQSREGKANRRW

Solution:
0.669
0.692
0.657
0.742

----------
Test system: Saccharomyces cerevisiae
Experiment: protein stability index of tFT-peptide fusion (C-terminal peptide) (PSI (0-1 scale)); higher = more stable (slower turnover)
Conditions: genetic background: wild type; temperature: 30 C
Measured attribute: protein stability index
Numbers only.

See these solved cases before continuing.
LGFIQNSTIVCQ [YMR306C-A C-terminal 12 aa]: 0.494
LSDASYDTYELV [SPG5 C-terminal 12 aa]: 0.743
KLKFLQNTYNND [CCE1 C-terminal 12 aa]: 0.635
QAKEVFDKMQKE [FMP23 C-terminal 12 aa]: 0.686
ILAENEIEVSRG [FET5 C-terminal 12 aa]: 0.705

List protein stability index for every entry below, keeping the order given.
1. KPLLTSIFPNHK [YBL012C C-terminal 12 aa]
2. DWVSHGGDKLDL [RDL1 C-terminal 12 aa]
3. VKTKFFPLSSSI [YDR199W C-terminal 12 aa]
4. SLEHFIDSVSSL [TRP4 C-terminal 12 aa]
5. SSKKTIQEEIYI [DPB2 C-terminal 12 aa]
6. VMEEEEQDCKCI [POP8 C-terminal 12 aa]

Solution:
[0.667, 0.704, 0.716, 0.672, 0.741, 0.652]

List protein stability index for every entry below, keeping the order given.
1. IVNIKILRRNSR [LDB16 C-terminal 12 aa]
2. ESKDDDDDDDWE [DOS2 C-terminal 12 aa]
3. AVGIQSSESLLM [YMR175W-A C-terminal 12 aa]
4. RRQSLPKRFPLI [YAR035C-A C-terminal 12 aa]
5. KKNDTPKPKPLK [SFC1 C-terminal 12 aa]
6. AATAKGKGKKKK [RSM27 C-terminal 12 aa]
7. LQYKKVGKWRED [URB2 C-terminal 12 aa]
8. LYDNIRSGNFGI [MSB1 C-terminal 12 aa]

Solution:
1: 0.781; 2: 0.648; 3: 0.715; 4: 0.697; 5: 0.678; 6: 0.645; 7: 0.736; 8: 0.65

List protein stability index for every entry below, keeping the order given.
1. LRKAAANNCIQF [SUA5 C-terminal 12 aa]
2. PPNTLWHYNFRK [MRPL28 C-terminal 12 aa]

Solution:
1. 0.713
2. 0.69

List protein stability index for every entry below, keeping the order given.
1. NFVSQYRNDEIY [YOR381W-A C-terminal 12 aa]
2. VLDEEFRNNNAS [RAD26 C-terminal 12 aa]
3. TNEWCLFTPDSP [MLH2 C-terminal 12 aa]
4. GSLLLYLLLKIL [INP54 C-terminal 12 aa]

Solution:
1. 0.659
2. 0.69
3. 0.736
4. 0.119
